# Tested on: COLO 205
# assay.details: NCI tumour cell line growth inhibition, 48 h
The source made the active and inactive calls. No stated cut-off is given here; in the data, active = GI50 up to about 1.1 µM and inactive = higher. Non-standard residues stand in square brackets, D forms with d. Residues, ends and D or L forms follow the SMILES beside them. Ava = NCCCCC(=O)O; Mpa = O=C(O)CCS
endpoint: GI50

| compound | GI50 |
| --- | --- |
| CCOC(=O)/C1=C(\C)N(Cc2ccccc2)C(=O)c2ccccc2C(=O)c2c(O)ccc(O)c21 | > 100 µM (inactive) |
| Cc1cc(S(=O)(=O)Nc2nnc3c(C(F)(F)F)cc(Cl)cn23)c(S)cc1Cl | > 100 µM (inactive) |
| CO/N=C/c1c(-c2ccc(Cl)cc2)c(/C=N/OC)n2c1sc1ccccc12 | > 100 µM (inactive) |

The measured GI50 associated with CC(NC(=O)CCS)C(=O)NC(C)C(=O)NC(Cc1c[nH]c2ccccc12)C(=O)NC(Cc1c[nH]cn1)C(=O)NC(CO)C(=O)NC(Cc1c[nH]c2ccccc12)C(=O)NCCCCC(=O)NC(C)C(=O)NC(CCC(N)=O)C(=O)NC(CCCCN)C(=O)NC(C)C(=O)NC(CCCNC(=N)N)C(=O)NC(CCCCN)C(N)=O (stereo unspecified) ([Mpa]AAWHSW[Ava]AQKARK-NH2; configuration not given here) reads 43.5 µM (inactive)

N#CC(C(=N/NC(N)=S)/C(=N\NC(N)=S)C(C#N)c1ccccc1)c1ccccc1 (stereo unspecified) has a reported GI50 of > 10 µM (inactive)

Record COc1ccc(N2C(=O)/C(=C/c3ccc(N(CCC#N)CCC#N)cc3C)N=C2c2cc([N+](=O)[O-])ccc2Cl)cc1 , field GI50: 4.34 µM (inactive)

====

# System: SF-268
# assay.details: NCI tumour cell line growth inhibition, 48 h
The source made the active and inactive calls. No stated cut-off is given here; in the data, active = GI50 up to about 1.1 µM and inactive = higher.
Use one of these outcomes when replying: 1 = active, 0 = inactive

Examples from the recorded data:
| compound | class.assignment |
| --- | --- |
| CCOC(=O)c1ccc(NC2Oc3cc4c(cc3C(c3cc(OC)c(OC)c(OC)c3)C2C)OCO4)cc1 (stereo not drawn) | 1 |
| COC(=O)C(Cc1c[nH]c2ccccc12)NP(=O)(O)OCC1OC(n2ccc(N)nc2=O)C(O)C1O (stereo not drawn) | 0 |
| O=c1oc2ccc3ccccc3c2cc1-c1cn2ccsc2n1 | 0 |

Query block: Hey, what did the test say about CCOC(=O)C(=O)Nc1c(F)cc(F)cc1Br ?
Result block: 0

Query block: Identify the outcome logged in this assay for the compound shown: CC1(C)CC[C@]2(C(=O)O)CCC3(C)C(=CCC4[C@@]5(C)CC[C@H](OC6OCC(O)C(O)C6OC6OC(CO)C(O)C(O)C6O)C(C)(C)C5CC[C@]43C)C2C1 (stereo partly drawn)
Result block: 0

Query block: Each compound tested received a call. Report the one for Cc1ccc(Cl)c2c1NC(=O)/C2=N\Nc1ccccc1[N+](=O)[O-] .
Result block: 0

Query block: Which outcome was assigned to COc1ccc(NC(=O)c2oc3cc(O)ccc3c(=O)c2C)c([N+](=O)[O-])c1 in this test?
Result block: 0

Query block: Please share the test call associated with Cc1cc(C)c2c(c1)C/C(=C\c1cccc(C)c1C(=O)O)C2=O .
Result block: 0

Query block: For this compound, state the assay outcome: CCOC(=O)C(O)(NC(=O)NC(O)(C(=O)OCC)C(F)(F)F)C(F)(F)F (stereo not drawn)
Result block: 0

====

# System: LXFL 529
# assay.details: NCI tumour cell line growth inhibition, 48 h
Calls of active or inactive are those of the source. No stated cut-off is given here; in the data, active = GI50 up to about 1.1 µM and inactive = higher.
Here, each record is paired with measured GI50 data.

Solved cases below.
| compound | assay.result |
| --- | --- |
| O=C1/C(=C/c2ccccc2)CN(C(=O)Oc2ccc([N+](=O)[O-])cc2)C/C1=C\c1ccccc1 | 2.02 µM (inactive) |
| C1=NN(Cc2ccccc2)C(N(Cc2ccccc2)Cc2ccccc2)N1 (stereo not drawn) | 12.1 µM (inactive) |

Note: attention shifts to another entry.
response.value for Cc1c(CC/C(=N\Nc2ccc([N+](=O)[O-])cc2[N+](=O)[O-])c2ccccc2)c2ccccc2n1C (field: GI50) = > 100 µM (inactive)

====

Listed below: GI50 values for each entry.
# System: HCT-116
# assay.details: NCI tumour cell line growth inhibition, 48 h
Active and inactive are the calls of the source. No stated cut-off is given here; in the data, active = GI50 up to about 1.1 µM and inactive = higher.

| compound | GI50 |
| --- | --- |
| C=CCC1(C)CCCCC1(O)C[S+]([O-])c1ccccc1 (stereo not given) | > 100 µM (inactive) |
| COc1cc2ccnc3c2c(c1O)N(C)C=C3 | 4 µM (inactive) |
| CCOC(=O)NNC(=O)NC12CC3CC(CC(C3)C1)C2 | > 100 µM (inactive) |
| CCc1cccc(C(C)CC)c1NC(=O)C(=O)C(CC(=O)Nc1ccc(Cl)c(Cl)c1)C(=O)OC (stereo not given) | > 100 µM (inactive) |

Field GI50 (HCT-116), entry NC(=O)[C@H](Cc1ccc(O)cc1)NC1=C(Cl)C(=O)c2c(O)ccc(O)c2C1=O : 1.57 µM (inactive)

Tested on HCT-116, the item O=c1[nH]c(=O)n(C2CC(O)C(CO)O2)cc1OCC1CCCCC1 (stereo not given) showed GI50 equal to > 100 µM (inactive)

Here Cc1ccc(C)c(NC(=O)C(=O)C(c2cnc3ccc([N+](=O)[O-])cc3n2)[N+](=O)[O-])c1 (stereo not given) was tested on HCT-116, and its GI50 came to 58.6 µM (inactive)

Form: item [C-]#[N+]C1(C(=O)OCC)CC1 ; test system HCT-116; GI50: > 100 µM (inactive)

GI50 value, target or system HCT-116, for O=[N+]([O-])c1cccc(Nc2nc(Cl)nc(Cl)n2)c1 : > 100 µM (inactive)

====

# System: IGROV-1
# assay.details: NCI tumour cell line growth inhibition, 48 h
The source made the active and inactive calls. No stated cut-off is given here; in the data, active = GI50 up to about 1.1 µM and inactive = higher. Non-standard residues stand in square brackets, D forms with d. Residues, ends and D or L forms follow the SMILES beside them. Ava = NCCCCC(=O)O; Mpa = O=C(O)CCS
Below, each of the compounds is paired with its reported GI50 value.

Example cases with answers are listed next.
| compound | system | assay.result |
| --- | --- | --- |
| CCCCCCCCCCCCCCCCP(=O)(OC)OC | IGROV-1 | 16.7 µM (inactive) |
| O=C(NC(=O)c1c(Cl)nc2sccn12)Nc1ccc(Cl)cc1 | IGROV-1 | 49.4 µM (inactive) |
| CC(NC(=O)CCS)C(=O)NC(C)C(=O)NC(Cc1c[nH]c2ccccc12)C(=O)NC(Cc1c[nH]cn1)C(=O)NC(CO)C(=O)NC(Cc1c[nH]c2ccccc12)C(=O)NCCCCC(=O)NC(C)C(=O)NC(CCC(N)=O)C(=O)NC(CCCCN)C(=O)NC(C)C(=O)NC(CCCNC(=N)N)C(=O)NC(CCCCN)C(N)=O (centres undefined) ([Mpa]AAWHSW[Ava]AQKARK-NH2; configuration not given here) | IGROV-1 | > 100 µM (inactive) |
| O=C(Nc1ccc(Cl)cc1)NS(=O)(=O)c1coc2ccccc2c1=O | IGROV-1 | > 10 µM (inactive) |
| O=C(N/C(=C\c1ccc(Br)cc1)c1nc2ccccc2s1)c1ccccc1 | IGROV-1 | 75.2 µM (inactive) |

Value of GI50 reported for the compound N#Cc1cccc2c1Sc1ccccc1N2 is 45.1 µM (inactive)

What the record says about O=C(O)[C@@H]1CSCN1C(=O)[C@@H]1CCC(=S)N1 : GI50 is > 100 µM (inactive)

Data point: O=c1[nH]c(=O)n(Cc2ccccc2CO)cc1Sc1ccccc1 ; GI50 = 12.3 µM (inactive)

Briefly, GI50 measured for O=C(NN1C(=O)CS(=O)(=O)C1c1ccc(Cl)c(Cl)c1)c1ccncc1 (centres undefined) : > 100 µM (inactive)

====

# Test system: HOP-18
# assay.details: NCI tumour cell line growth inhibition, 48 h
Activity calls are given as the source filed them. No stated cut-off is given here; in the data, active = GI50 up to about 1.1 µM and inactive = higher.
Overview of recorded GI50 for various molecules

# lookup: COC(OC)[C@@H](C)[C@H](O)[C@](C)(O)C1OC(C)(C)OC(C(C)C=C(C)C)C1C (some centres undefined) on HOP-18, GI50 = > 100 µM (inactive)

====

# Test system: UACC-62
# assay.details: NCI tumour cell line growth inhibition, 48 h
The source made the active and inactive calls. Rule as the data show it: active = GI50 up to about 1.1 µM and inactive = higher.
endpoint: GI50

Here are 4 compounds together with their reported answers.
| compound | GI50 |
| --- | --- |
| O=C1C[C@@H]2C(COC(=O)c3ccccc3)N(OCc3ccccc3)C[C@@H]2O1 (stereo not given in full) | > 100 µM (inactive) |
| CCCCCCCCCCCCCCCCP(=O)(OC)OC | 14.6 µM (inactive) |
| Cc1ccc2c(c1)[nH]c(=S)n2C=C(C(N)=O)C(N)=O | > 100 µM (inactive) |
| CC1(C)CC[C@]2(C(=O)O)CCC3(C)C(=CCC4[C@@]5(C)CC[C@H](OC6OCC(O)C(O)C6OC6OC(CO)C(O)C(O)C6O)C(C)(C)C5CC[C@]43C)C2C1 (stereo not given in full) | 1.83 µM (inactive) |

Noted for Cc1cc(Cc2c(F)c(F)c(Cc3cc(C)no3)c(F)c2F)on1 : its GI50 reads > 100 µM (inactive)
